Data origin: paper PMC4810211

For each entry below, report its Kd value.
# tested on: T1, cardiotoxin 3 (CTX3) (Naja atra (Taiwan cobra), UniProt P60301 22-81)
# T1 sequence: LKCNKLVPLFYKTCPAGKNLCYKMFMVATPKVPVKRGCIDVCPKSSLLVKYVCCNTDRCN
# test: fluorescence quenching titration; 10 mM Tris-HCl pH 7.5, 1 mM EDTA, 100 mM NaCl; temperature not stated; fluorescence with 4 nM aptamer (ex 480/em 520 nm); EMSA with 5 uM aptamer, 20 min, 2% agarose, TAE
# applied conditions: protein: native; tags: none; label: 5'-FAM
Numeric answer plus unit only.

Query: Report Kd for ATCATGTCTTTTCGGGATGGGCAAGAAGGGAAATAATGC (ssDNA) [FAM-bgt3]
Reply: 1.26 µM

Query: Report Kd for AGAAACGTAGCGGTAACTGCTAGAATGCGCCGAGAGAGCG (ssDNA) [FAM-bgt4]
Reply: 1.17 µM

Query: Report Kd for AGGGCACAGAGAAGAAGTCGTGGATTTGAATGGTTTTGGT (ssDNA) [FAM-bgt2]
Reply: 0.26 µM

Query: Report Kd for GCGAGGTGTTCGAGAGTTAGGGCGACATGACCAAACGTT (ssDNA) [FAM-bgt1]
Reply: 2.25 µM
